The measurements presented in this section are drawn from paper PMC6163091.

Measured % inhibition at 250 μM against UNH accompanies every entry in the list below.
# Test system: uridine nucleoside hydrolase (UNH)
# PROTOCOL TEXT: 19F NMR activity assay of UNH
# Format: biochemical, Trichomonas vaginalis
# CONDITIONS USED: 250 μM compound; NM = not measurable (percent inhibition < 10%)
Quick reminder: number only, in %, skip the unit.

Please review the following examples before continuing.
NC(=O)c1ncn([C@@H]2O[C@H](CO)[C@@H](O)[C@H]2O)c1N [Acadesine]; 51
NC(=O)c1ncn([C@@H]2O[C@H](CO)[C@@H](O)[C@H]2O)n1 [Ribavirin]; 58

As a next step, examine the compound that follows.
Request: Can you share its % inhibition at 250 μM against UNH? I mean this compound: N=C(N)c1ncn([C@@H]2O[C@H](CO)[C@@H](O)[C@H]2O)n1 [Viramidine]
Result: 55
